- targetEntity: human alpha2A receptors (Homo sapiens, UniProt P08913)
- Sequence (P08913 1-465): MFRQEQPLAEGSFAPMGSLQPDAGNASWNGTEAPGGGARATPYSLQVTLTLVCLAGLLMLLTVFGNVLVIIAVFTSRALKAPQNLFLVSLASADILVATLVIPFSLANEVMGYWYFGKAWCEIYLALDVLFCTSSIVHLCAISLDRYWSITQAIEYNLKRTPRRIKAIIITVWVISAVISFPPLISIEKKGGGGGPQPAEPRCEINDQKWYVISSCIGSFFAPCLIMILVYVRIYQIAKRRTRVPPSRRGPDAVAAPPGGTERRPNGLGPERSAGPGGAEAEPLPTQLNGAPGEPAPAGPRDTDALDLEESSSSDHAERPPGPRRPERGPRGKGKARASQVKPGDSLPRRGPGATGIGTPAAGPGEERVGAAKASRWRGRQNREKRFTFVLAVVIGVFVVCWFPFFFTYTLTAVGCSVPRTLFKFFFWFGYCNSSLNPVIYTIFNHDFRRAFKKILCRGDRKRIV
- procedureDetails: cell-based
Counter-ions that a name gives are not always drawn.
experimentalReadout: Kb

Name the recorded Kb for c1ccc2c(c1)OC[C@H](CN1CCC[C@H](n3nnc4ccccc43)C1)O2 .
125 nM

Name the recorded Kb for O=C1CN(Cc2ccccc2)C(=O)N1[C@H]1CCCN(C[C@H]2COc3ccccc3O2)C1 .
50 nM

Name the recorded Kb for COc1ccccc1C1=CC(=O)N([C@H]2CCCN(C[C@H]3COc4ccccc4O3)C2)C1 [example 43, formate] .
> 449 nM

Name the recorded Kb for Cc1nc2ccc(F)cc2n1[C@H]1CCCN(C[C@H]2COc3ccccc3O2)C1 .
> 449 nM

Name the recorded Kb for O=C1c2cccnc2C(=O)N1[C@H]1CCCN(C[C@H]2COc3ccccc3O2)C1 .
> 449 nM

Name the recorded Kb for O=c1n(-c2ccccc2)c2ccccc2n1[C@H]1CCCN(C[C@H]2COc3ccccc3O2)C1 .
> 449 nM

Name the recorded Kb for COc1cccc2c1CN([C@H]1CCCN(C[C@H]3COc4ccccc4O3)C1)C2=O .
> 449 nM

Name the recorded Kb for CSc1ncc2c(n1)CN([C@H]1CCCN(C[C@H]3COc4ccccc4O3)C1)C2=O .
> 449 nM
